Source: patent US8759386B2

pKi for assorted compounds
Target: human CRTH2 receptor (Homo sapiens (Human), UniProt Q9Y5Y4)
Sequence (Q9Y5Y4 whole entry): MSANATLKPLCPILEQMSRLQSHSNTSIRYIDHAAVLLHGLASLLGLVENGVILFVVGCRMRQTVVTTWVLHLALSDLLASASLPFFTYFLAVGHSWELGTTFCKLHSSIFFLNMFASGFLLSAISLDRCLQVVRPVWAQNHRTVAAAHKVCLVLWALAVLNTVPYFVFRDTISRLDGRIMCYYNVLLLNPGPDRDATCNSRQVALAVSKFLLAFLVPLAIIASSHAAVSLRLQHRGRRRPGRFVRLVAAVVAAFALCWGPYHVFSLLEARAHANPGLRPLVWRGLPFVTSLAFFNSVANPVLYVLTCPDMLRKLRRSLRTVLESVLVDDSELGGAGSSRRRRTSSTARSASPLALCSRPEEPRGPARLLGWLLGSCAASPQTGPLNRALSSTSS
Assay: CRTH2 receptor radioligand binding assay (SPA, [3H]-PGD2, CHO-K1-hCRTH2 cell membranes)
Details: Table 1, compounds of formula Ia″; displacement of [3H]-PGD2 from CHO-K1-hCRTH2 membranes
pKi: −log10 of the molar value.

{"columns": ["STRUCTURE_AS_SMILES", "pKi"],
 "data": [
  ["Cc1nn(Cc2ccc(NC(=O)c3oc4c(F)cccc4c3C)cc2)c(C)c1CC(=O)O", 8.89],
  ["COCc1c(C(=O)Nc2ccc(Cn3nc(C)c(CC(=O)O)c3C)c(F)c2)oc2ccccc12", 8.64],
  ["CCc1nn(Cc2ccc(NC(=O)c3cc4ccc(F)cc4[nH]3)cc2)c(CC)c1CC(=O)O", 9.70],
  ["CCCn1c(C(=O)Nc2ccc(Cn3nc(C)c(CC(=O)O)c3C)c(F)c2)cc2cc(F)ccc21", 9.70],
  ["COc1ccc2[nH]c(C(=O)Nc3ccc(Cn4nc(C)c(CC(=O)O)c4C)cc3)c(C)c2c1", 10.00],
  ["Cc1nn(Cc2ccc(NC(=O)c3oc4c(F)cccc4c3C)cc2F)c(C)c1CC(=O)O", 9.40],
  ["Cc1nn(Cc2ccc(NC(=O)c3cc4ccccc4o3)cc2Cl)c(C)c1CC(=O)O", 9.10],
  ["CCc1nn(Cc2ccc(NC(=O)c3cc4cc(Cl)ccc4o3)cc2)c(CC)c1CC(=O)O", 9.70]
]}

----------
Molecular target: human CRTH2 receptor (Homo sapiens (Human), UniProt Q9Y5Y4)
Assay: CRTH2 receptor radioligand binding assay (SPA, [3H]-PGD2, CHO-K1-hCRTH2 cell membranes)
Conditions: Table 1, compounds of formula Ia″; displacement of [3H]-PGD2 from CHO-K1-hCRTH2 membranes
pKi: −log10 of the molar value.
Let's look at some molecules and their measured pKi.
READOUT_NAME: pKi

{"columns": ["STRUCTURE_AS_SMILES", "ASSAY_TARGET", "COMPARISON_OPERATOR", "OBSERVED_RESULT"],
 "data": [
  ["CCc1nn(Cc2ccc(NC(=O)c3cc4ccccc4n3CC)cc2)c(CC)c1CC(=O)O", "human CRTH2 receptor (Homo sapiens (Human), UniProt Q9Y5Y4)", "=", 9.70],
  ["Cc1nn(Cc2ccc(NC(=O)c3sc4ccc(F)cc4c3C)cc2F)c(C)c1CC(=O)O", "human CRTH2 receptor (Homo sapiens (Human), UniProt Q9Y5Y4)", "=", 8.35],
  ["Cc1nn(Cc2ccc(NC(=O)c3cc4ccccc4n3Cc3ccccc3)cc2F)c(C)c1CC(=O)O", "human CRTH2 receptor (Homo sapiens (Human), UniProt Q9Y5Y4)", "=", 9.70],
  ["Cc1nn(Cc2ccc(NC(=O)c3oc4c(Cl)cccc4c3C)cc2F)c(C)c1CC(=O)O", "human CRTH2 receptor (Homo sapiens (Human), UniProt Q9Y5Y4)", "=", 8.66],
  ["CCCn1c(C(=O)Nc2ccc(Cn3nc(C)c(CC(=O)O)c3C)c(F)c2)cc2ccccc21", "human CRTH2 receptor (Homo sapiens (Human), UniProt Q9Y5Y4)", "=", 9.70],
  ["CCn1c(C(=O)Nc2ccc(Cn3nc(C)c(CC(=O)O)c3C)cc2)cc2ccccc21", "human CRTH2 receptor (Homo sapiens (Human), UniProt Q9Y5Y4)", "=", 9.40],
  ["Cc1nn(Cc2ccc(NC(=O)c3cc4ccc(Cl)cc4o3)cc2F)c(C)c1CC(=O)O", "human CRTH2 receptor (Homo sapiens (Human), UniProt Q9Y5Y4)", "=", 9.40],
  ["CCn1c(C(=O)Nc2ccc(Cn3nc(C)c(CC(=O)O)c3C)c(F)c2)cc2c(F)cccc21", "human CRTH2 receptor (Homo sapiens (Human), UniProt Q9Y5Y4)", "=", 9.40],
  ["Cc1nn(Cc2ccc(NC(=O)c3cc4ccccc4[nH]3)cc2)c(C)c1CC(=O)O", "human CRTH2 receptor (Homo sapiens (Human), UniProt Q9Y5Y4)", "=", 9.70],
  ["Cc1nn(Cc2ccc(NC(=O)c3cc4ccc(F)cc4[nH]3)cc2)c(C)c1CC(=O)O", "human CRTH2 receptor (Homo sapiens (Human), UniProt Q9Y5Y4)", "=", 9.70],
  ["Cc1nn(Cc2ccc(NC(=O)c3cc4ccccc4s3)cc2)c(C)c1CC(=O)O", "human CRTH2 receptor (Homo sapiens (Human), UniProt Q9Y5Y4)", "=", 9.52],
  ["Cc1nn(Cc2ccc(NC(=O)c3cc4ccccc4n3Cc3ccccc3)cc2)c(C)c1CC(=O)O", "human CRTH2 receptor (Homo sapiens (Human), UniProt Q9Y5Y4)", ">", 10.00],
  ["Cc1nn(Cc2ccc(NC(=O)c3cc4ccc(Cl)cc4o3)cc2)c(C)c1CC(=O)O", "human CRTH2 receptor (Homo sapiens (Human), UniProt Q9Y5Y4)", "=", 9.70],
  ["CCn1c(C(=O)Nc2ccc(Cn3nc(C)c(CC(=O)O)c3C)c(F)c2)cc2ccccc21", "human CRTH2 receptor (Homo sapiens (Human), UniProt Q9Y5Y4)", "=", 9.70],
  ["COc1cccc2cc(C(=O)Nc3ccc(Cn4nc(C)c(CC(=O)O)c4C)cc3)oc12", "human CRTH2 receptor (Homo sapiens (Human), UniProt Q9Y5Y4)", "=", 8.92],
  ["CCc1nn(Cc2ccc(NC(=O)c3c(C)c4ccccc4n3C)cc2)c(CC)c1CC(=O)O", "human CRTH2 receptor (Homo sapiens (Human), UniProt Q9Y5Y4)", "=", 8.00],
  ["CCCCn1c(C(=O)Nc2ccc(Cn3nc(C)c(CC(=O)O)c3C)c(F)c2)cc2cc(F)ccc21", "human CRTH2 receptor (Homo sapiens (Human), UniProt Q9Y5Y4)", "=", 10.00],
  ["Cc1nn(Cc2ccc(NC(=O)c3cc4ccccc4n3C)cc2)c(C)c1CC(=O)O", "human CRTH2 receptor (Homo sapiens (Human), UniProt Q9Y5Y4)", "=", 9.10],
  ["Cc1nn(Cc2ccc(NC(=O)c3cc4ccccc4[nH]3)cc2Cl)c(C)c1CC(=O)O", "human CRTH2 receptor (Homo sapiens (Human), UniProt Q9Y5Y4)", "=", 9.30],
  ["CCc1nn(Cc2ccc(NC(=O)c3cc4ccccc4n3C)cc2)c(CC)c1CC(=O)O", "human CRTH2 receptor (Homo sapiens (Human), UniProt Q9Y5Y4)", "=", 9.52],
  ["CCn1c(C(=O)Nc2ccc(Cn3nc(C)c(CC(=O)O)c3C)cc2)cc2ccc(F)cc21", "human CRTH2 receptor (Homo sapiens (Human), UniProt Q9Y5Y4)", "=", 10.00],
  ["CCCn1c(C(=O)Nc2ccc(Cn3nc(C)c(CC(=O)O)c3C)cc2)cc2ccc(F)cc21", "human CRTH2 receptor (Homo sapiens (Human), UniProt Q9Y5Y4)", "=", 10.00],
  ["CCCCn1c(C(=O)Nc2ccc(Cn3nc(C)c(CC(=O)O)c3C)c(F)c2)cc2ccccc21", "human CRTH2 receptor (Homo sapiens (Human), UniProt Q9Y5Y4)", "=", 9.70],
  ["COc1ccc2oc(C(=O)Nc3ccc(Cn4nc(C)c(CC(=O)O)c4C)c(F)c3)c(C)c2c1", "human CRTH2 receptor (Homo sapiens (Human), UniProt Q9Y5Y4)", "=", 10.00],
  ["CCc1c(C(=O)Nc2ccc(Cn3nc(C)c(CC(=O)O)c3C)cc2)oc2c(F)cccc12", "human CRTH2 receptor (Homo sapiens (Human), UniProt Q9Y5Y4)", "=", 9.52],
  ["CCCc1c(C(=O)Nc2ccc(Cn3nc(C)c(CC(=O)O)c3C)c(F)c2)oc2ccc(F)cc12", "human CRTH2 receptor (Homo sapiens (Human), UniProt Q9Y5Y4)", "=", 9.15],
  ["Cc1nn(Cc2ccc(NC(=O)c3cc4cc(F)ccc4[nH]3)cc2)c(C)c1CC(=O)O", "human CRTH2 receptor (Homo sapiens (Human), UniProt Q9Y5Y4)", "=", 9.70],
  ["Cc1nn(Cc2ccc(NC(=O)c3oc4ccc(Cl)cc4c3C)cc2F)c(C)c1CC(=O)O", "human CRTH2 receptor (Homo sapiens (Human), UniProt Q9Y5Y4)", "=", 9.52],
  ["COc1ccc2oc(C(=O)Nc3ccc(Cn4nc(C)c(CC(=O)O)c4C)cc3)cc2c1", "human CRTH2 receptor (Homo sapiens (Human), UniProt Q9Y5Y4)", "=", 9.22],
  ["Cc1nn(Cc2ccc(NC(=O)c3cc4ccccc4n3C)cc2F)c(C)c1CC(=O)O", "human CRTH2 receptor (Homo sapiens (Human), UniProt Q9Y5Y4)", "=", 9.00],
  ["CCCn1c(C(=O)Nc2ccc(Cn3nc(C)c(CC(=O)O)c3C)c(F)c2)cc2ccc(F)cc21", "human CRTH2 receptor (Homo sapiens (Human), UniProt Q9Y5Y4)", "=", 10.00],
  ["CCc1c(C(=O)Nc2ccc(Cn3nc(C)c(CC(=O)O)c3C)cc2)oc2c(F)cc(F)cc12", "human CRTH2 receptor (Homo sapiens (Human), UniProt Q9Y5Y4)", "=", 9.52]
]}
